Protein target, amino acids: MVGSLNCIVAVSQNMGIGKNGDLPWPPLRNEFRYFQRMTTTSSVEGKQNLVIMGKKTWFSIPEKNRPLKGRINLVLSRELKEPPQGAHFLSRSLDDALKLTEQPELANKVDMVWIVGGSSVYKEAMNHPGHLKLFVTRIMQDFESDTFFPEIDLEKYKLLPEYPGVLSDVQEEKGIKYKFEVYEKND
pIC50: −log10 of the molar value.
EXPERIMENTAL_READOUT: pIC50

| COMPOUND | MEASURED_VALUE |
| --- | --- |
| CCCC(CC)n1ccc2c3c(N)nc(N)nc3ccc21 (stereo not drawn) | > 9.00 |
| CCC(CC)n1c(C)cc2c3c(N)nc(N)nc3ccc21 | > 9.00 |
| CCC(CC)n1ccc2c3c(N)nc(N)nc3ccc21 | > 9.00 |

Reference source for all entries: patent EP0542497A1
